subject_of_test: Beta-3 adrenergic receptor (Homo sapiens)
Sequence (P13945 whole entry): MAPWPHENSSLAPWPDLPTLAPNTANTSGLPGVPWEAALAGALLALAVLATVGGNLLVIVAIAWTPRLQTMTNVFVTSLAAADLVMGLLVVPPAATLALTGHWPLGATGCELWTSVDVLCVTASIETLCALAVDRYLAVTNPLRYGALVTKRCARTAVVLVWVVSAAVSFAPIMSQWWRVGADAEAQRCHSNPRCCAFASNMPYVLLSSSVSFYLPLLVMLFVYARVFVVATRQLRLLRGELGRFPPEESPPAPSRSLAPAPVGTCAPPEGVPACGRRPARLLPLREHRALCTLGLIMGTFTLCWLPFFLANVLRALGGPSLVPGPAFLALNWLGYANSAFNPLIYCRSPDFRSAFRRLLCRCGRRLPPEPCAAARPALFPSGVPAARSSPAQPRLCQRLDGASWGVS
protocol_notes: Activity against human beta 3 adrenergic receptor (AR), expressed in CHO cells.
Assay type: functional, cell-based
reported_property: EC50 (nM)
Just the number in nM, nothing appended.

**Query** Look at this molecule and give its reported EC50. "C[C@H](CNc1cccc(CCS(=O)(=O)NS(=O)(=O)c2ccccc2)c1)NC[C@H](O)c1cccc(Cl)c1"
**Result** 1.58

* * *

subject_of_test: Beta-2 adrenergic receptor (Homo sapiens)
protocol_notes: Ability to cause cAMP accumulation in CHO cells expressing human beta-2 AR expressed as the negative logarithm of the molar drug concentration
Assay type: functional, cell-based
Sequence (P07550 whole entry): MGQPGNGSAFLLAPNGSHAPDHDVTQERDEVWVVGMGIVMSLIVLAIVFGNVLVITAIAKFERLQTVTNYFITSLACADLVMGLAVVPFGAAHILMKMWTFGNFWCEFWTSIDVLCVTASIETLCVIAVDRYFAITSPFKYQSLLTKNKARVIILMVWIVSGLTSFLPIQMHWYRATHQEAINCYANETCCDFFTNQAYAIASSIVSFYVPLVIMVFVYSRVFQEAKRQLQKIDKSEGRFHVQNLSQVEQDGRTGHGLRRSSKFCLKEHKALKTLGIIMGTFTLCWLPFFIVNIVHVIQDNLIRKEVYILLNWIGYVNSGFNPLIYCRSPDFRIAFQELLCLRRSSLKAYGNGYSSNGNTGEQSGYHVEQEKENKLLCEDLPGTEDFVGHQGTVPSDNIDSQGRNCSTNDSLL
pEC50: −log10 of the molar value.
Consider the reported pEC50 of an entry and match it to a band in lower range = under 7, middle range = from 7 up to 8, upper range = 8 and over

**Query** Textbook exercise: identify the category of the compound given here, "C[C@H](CNc1ccc(CC(=O)O)cc1)NC[C@H](O)c1cccc(Cl)c1" , according to its measured value.
**Result** middle range

**Query** Textbook exercise: identify the category of the compound given here, "C[C@H](CNc1ccc(CCC(=O)O)cc1)NC[C@H](O)c1cccc(Cl)c1" , according to its measured value.
**Result** lower range

**Query** Textbook exercise: identify the category of the compound given here, "C[C@H](CNc1ccc(CNS(C)(=O)=O)cc1)NC[C@H](O)c1cccc(Cl)c1" , according to its measured value.
**Result** upper range

**Query** Textbook exercise: identify the category of the compound given here, "Cc1ccc(CNC(=O)Cc2ccc(NC[C@@H](C)NC[C@H](O)c3cccc(Cl)c3)cc2)cc1" , according to its measured value.
**Result** upper range

**Query** Textbook exercise: identify the category of the compound given here, "C[C@H](CNc1ccc(CC(=O)NS(C)(=O)=O)cc1)NC[C@H](O)c1cccc(Cl)c1" , according to its measured value.
**Result** middle range

**Query** Textbook exercise: identify the category of the compound given here, "CC(=O)NCc1ccc(NC[C@@H](C)NC[C@H](O)c2cccc(Cl)c2)cc1" , according to its measured value.
**Result** upper range

**Query** Textbook exercise: identify the category of the compound given here, "C[C@H](CNc1ccc(C(=O)O)cc1)NC[C@H](O)c1cccc(Cl)c1" , according to its measured value.
**Result** lower range

* * *

subject_of_test: Beta-1 adrenergic receptor (Homo sapiens, UniProt P08588)
Sequence (P08588 whole entry, looked up): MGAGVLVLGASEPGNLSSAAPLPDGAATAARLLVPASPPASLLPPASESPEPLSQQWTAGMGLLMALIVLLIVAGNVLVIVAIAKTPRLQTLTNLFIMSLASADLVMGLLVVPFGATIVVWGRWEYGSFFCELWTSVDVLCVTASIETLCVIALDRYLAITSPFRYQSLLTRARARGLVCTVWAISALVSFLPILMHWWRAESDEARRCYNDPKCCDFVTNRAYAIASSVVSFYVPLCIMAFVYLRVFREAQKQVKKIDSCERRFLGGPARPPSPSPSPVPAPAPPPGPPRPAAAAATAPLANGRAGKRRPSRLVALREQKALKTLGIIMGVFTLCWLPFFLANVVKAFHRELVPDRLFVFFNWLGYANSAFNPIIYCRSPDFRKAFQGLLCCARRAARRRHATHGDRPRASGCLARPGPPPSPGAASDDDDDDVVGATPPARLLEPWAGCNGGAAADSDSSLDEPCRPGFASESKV
protocol_notes: concentration-response expressed as a percent of the maximal response to R-(-) isoproterenol (ISO).Emax is the fitted maximal value of the concentration
Type: functional
reported_property: Emax (%)
Just the number in %, nothing appended.

**Query** So what Emax did "C[C@H](Cc1ccc(OCC(=O)O)cc1)NC[C@H](O)c1cccc(Cl)c1" get with Beta-1 adrenergic receptor (Homo sapiens, UniProt P08588)?
**Result** 28

**Query** So what Emax did "C[C@H](CNc1ccc(CC(=O)NS(C)(=O)=O)cc1)NC[C@H](O)c1cccc(Cl)c1" get with Beta-1 adrenergic receptor (Homo sapiens, UniProt P08588)?
**Result** 30

**Query** So what Emax did "C[C@H](CNc1cccc(CC(=O)O)c1)NC[C@H](O)c1cccc(Cl)c1" get with Beta-1 adrenergic receptor (Homo sapiens, UniProt P08588)?
**Result** 6

**Query** So what Emax did "C[C@H](CNc1ccc(CCC(=O)O)cc1)NC[C@H](O)c1cccc(Cl)c1" get with Beta-1 adrenergic receptor (Homo sapiens, UniProt P08588)?
**Result** 10

**Query** So what Emax did "Cc1ccc(S(=O)(=O)NCCc2ccc(NC[C@@H](C)NC[C@H](O)c3cccc(Cl)c3)cc2)cc1" get with Beta-1 adrenergic receptor (Homo sapiens, UniProt P08588)?
**Result** 22

**Query** So what Emax did "CC(=O)NCc1ccc(NC[C@@H](C)NC[C@H](O)c2cccc(Cl)c2)cc1" get with Beta-1 adrenergic receptor (Homo sapiens, UniProt P08588)?
**Result** 15

**Query** So what Emax did "Cc1ccc(S(=O)(=O)NC(=O)Cc2ccc(NC[C@@H](C)NC[C@H](O)c3cccc(Cl)c3)cc2)cc1" get with Beta-1 adrenergic receptor (Homo sapiens, UniProt P08588)?
**Result** 23

**Query** So what Emax did "C[C@H](CNc1ccc(C(=O)O)cc1)NC[C@H](O)c1cccc(Cl)c1" get with Beta-1 adrenergic receptor (Homo sapiens, UniProt P08588)?
**Result** 17

**Query** So what Emax did "C[C@H](CNc1ccc(CNS(C)(=O)=O)cc1)NC[C@H](O)c1cccc(Cl)c1" get with Beta-1 adrenergic receptor (Homo sapiens, UniProt P08588)?
**Result** 11

**Query** So what Emax did "C[C@H](CNc1ccc(CCS(=O)(=O)NC(=O)c2ccccc2)cc1)NC[C@H](O)c1cccc(Cl)c1" get with Beta-1 adrenergic receptor (Homo sapiens, UniProt P08588)?
**Result** 27

**Query** So what Emax did "C[C@H](CNc1ccccc1)NC[C@H](O)c1cccc(Cl)c1" get with Beta-1 adrenergic receptor (Homo sapiens, UniProt P08588)?
**Result** 27

**Query** So what Emax did "C[C@H](CNc1ccc(CC(=O)Nc2nccs2)cc1)NC[C@H](O)c1cccc(Cl)c1" get with Beta-1 adrenergic receptor (Homo sapiens, UniProt P08588)?
**Result** 14

**Query** So what Emax did "Cc1ccc(CNC(=O)Cc2ccc(NC[C@@H](C)NC[C@H](O)c3cccc(Cl)c3)cc2)cc1" get with Beta-1 adrenergic receptor (Homo sapiens, UniProt P08588)?
**Result** 12

**Query** So what Emax did "C[C@H](CNc1cccc(CNC(=O)NS(=O)(=O)c2ccccc2)c1)NC[C@H](O)c1cccc(Cl)c1" get with Beta-1 adrenergic receptor (Homo sapiens, UniProt P08588)?
**Result** 15

**Query** So what Emax did "Cc1ccc(S(=O)(=O)NC(=O)Cc2cccc(NC[C@@H](C)NC[C@H](O)c3cccc(Cl)c3)c2)cc1" get with Beta-1 adrenergic receptor (Homo sapiens, UniProt P08588)?
**Result** 8

**Query** So what Emax did "C[C@H](CNc1ccc(CC(=O)NS(=O)(=O)c2ccccc2)cc1)NC[C@H](O)c1cccc(Cl)c1" get with Beta-1 adrenergic receptor (Homo sapiens, UniProt P08588)?
**Result** 22

* * *

For each entry below, report its Emax value.
subject_of_test: Beta-2 adrenergic receptor (Homo sapiens)
protocol_notes: concentration-response expressed as a percent of the maximal response to R-(-) isoproterenol (ISO).Emax is the fitted maximal value of the concentration
Format: functional
Sequence (P07550 whole entry, looked up): as the sequence (P07550 whole entry) above
Just the number in %, nothing appended.

**Query** Look at this compound and give its reported Emax. "C[C@H](CNc1ccc(CC(=O)Nc2nccs2)cc1)NC[C@H](O)c1cccc(Cl)c1"
**Result** 31

**Query** Look at this compound and give its reported Emax. "C[C@H](CNc1ccc(CCS(=O)(=O)NC(=O)c2ccccc2)cc1)NC[C@H](O)c1cccc(Cl)c1"
**Result** 52

**Query** Look at this compound and give its reported Emax. "C[C@H](CNc1ccc(C(=O)O)cc1)NC[C@H](O)c1cccc(Cl)c1"
**Result** 70

**Query** Look at this compound and give its reported Emax. "Cc1ccc(S(=O)(=O)NCCc2ccc(NC[C@@H](C)NC[C@H](O)c3cccc(Cl)c3)cc2)cc1"
**Result** 28

**Query** Look at this compound and give its reported Emax. "CC(=O)NCc1ccc(NC[C@@H](C)NC[C@H](O)c2cccc(Cl)c2)cc1"
**Result** 75

* * *

subject_of_test: Beta-2 adrenergic receptor (Homo sapiens, UniProt P07550)
protocol_notes: Receptor binding assay(Beta-2 adrenergic receptor) carried out with membranes prepared from human recombinant Sf9 cells expressing the cloned human receptor in the presence of [125I]iodocyanopindolol
reported_property: IC50 (µM)
Just the number in µM, nothing appended.

**Query** Look at this compound and give its reported IC50. "Cc1ccc(S(=O)(=O)NC(=O)Cc2cccc(NC[C@@H](C)NC[C@H](O)c3cccc(Cl)c3)c2)cc1"
**Result** 15.8

**Query** Look at this compound and give its reported IC50. "C[C@H](CNc1ccc(CC(=O)O)cc1)NC[C@H](O)c1cccc(Cl)c1"
**Result** 0.794

**Query** Look at this compound and give its reported IC50. "Cc1ccc(S(=O)(=O)NC(=O)Cc2ccc(NC[C@@H](C)NC[C@H](O)c3cccc(Cl)c3)cc2)cc1"
**Result** 5.01

* * *

subject_of_test: Beta-2 adrenergic receptor (Homo sapiens, UniProt P07550)
protocol_notes: Concentration that causes 50% inhibition of human beta 2 adrenergic receptor (AR), expressed in CHO cells.
Assay type: functional, cell-based
reported_property: pEC50
# pEC50 = -log10(concentration in molar units)

**Query** Look at this compound and give its reported pEC50. "C[C@H](CNc1ccc(CCS(=O)(=O)NC(=O)c2ccccc2)cc1)NC[C@H](O)c1cccc(Cl)c1"
**Result** 6.50

**Query** Look at this compound and give its reported pEC50. "C[C@H](CNc1cccc(CNC(=O)NS(=O)(=O)c2ccccc2)c1)NC[C@H](O)c1cccc(Cl)c1"
**Result** 6.60
